Source listed as patent US9938261B2.

STUDY_SYSTEM: kinase panel containing either 386 or 392 distinct kinases
EXPERIMENT_NOTES: Kinase selectivity score S10 from competition binding panel
CONDITION_DESCRIPTION: compounds at 10 μM; 386 or 392 distinct kinases
PROPERTY: Kinase specificity S(10)

CCc1cnc2c(c1)ncn2Cc1ccc2nc(N[C@@H]3CCCC[C@H]3O)sc2c1 [Example 102]	B (0.01<B≤0.02)
COc1cc2c(cc1Br)ncn2Cc1ccc2nc(N[C@@H]3CCCC[C@H]3O)sc2c1 [Example 41]	A (A≤0.01)
C=Cc1cnc2c(c1)ncn2Cc1ccc2nc(N[C@@H]3CCCC[C@H]3O)sc2c1 [Example 98]	B (0.01<B≤0.02)
CNC(=O)c1cn(Cc2ccc3nc(N[C@@H]4CCCC[C@H]4O)sc3c2)cn1 [Example 37]	A (A≤0.01)
O[C@@H]1CCCC[C@H]1Nc1nc2ccc(Cn3cnc4cc(Br)cnc43)cc2o1 [Example 61]	C (C>0.02)
Cn1cc(-c2cnc3c(c2)ncn3Cc2ccc3nc(N[C@@H]4CCCC[C@H]4O)sc3c2)cn1 [Example 39]	C (C>0.02)
O[C@@H]1Cc2ccccc2[C@H]1Nc1nc2ccc(Cn3cnc4cc(Br)cnc43)cc2o1 [Example 62]	C (C>0.02)
COc1cc2ncn(Cc3ccc4nc(N[C@@H]5CCCC[C@H]5O)sc4c3)c2cc1-c1cnn(C)c1 [Example 52]	C (C>0.02)
Cn1cc(-c2cn(Cc3ccc4nc(N[C@@H]5CCCC[C@H]5O)oc4c3)cn2)cn1 [Example 77]	A (A≤0.01)
COc1ccn2c(Cc3ccc4nc(N[C@@H]5CCCC[C@H]5O)sc4c3)cnc2c1 [Example 44]	A (A≤0.01)
O[C@@H]1CCCC[C@H]1Nc1nc2ccc(Cn3cnc4cccnc43)cc2o1 [Example 56]	C (C>0.02)
O[C@@H]1Cc2ccccc2[C@H]1Nc1nc2ccc(Cn3cnc4ccc(Br)nc43)cc2s1 [Example 80]	B (0.01<B≤0.02)
C#Cc1cnc2c(c1)ncn2Cc1ccc2nc(N[C@@H]3CCCC[C@H]3O)sc2c1 [Example 96]	C (C>0.02)
OCc1cnc2c(c1)ncn2Cc1ccc2nc(N[C@@H]3CCCC[C@H]3O)sc2c1 [Example 84]	A (A≤0.01)
COc1cc2ncn(Cc3ccc4nc(NCC5CCCCC5)oc4c3)c2cc1OC [Example 35]	C (C>0.02)
CS(=O)(=O)c1cnc2c(c1)ncn2Cc1ccc2nc(N[C@@H]3CCCC[C@H]3O)sc2c1 [Example 74]	B (0.01<B≤0.02)
COc1cc2c(cc1-c1cnn(C)c1)ncn2Cc1ccc2nc(N[C@@H]3CCCC[C@H]3O)sc2c1 [Example 51]	C (C>0.02)
COc1cc2ncn(Cc3ccc4nc(N[C@@H]5CCCC[C@H]5O)sc4c3)c2cc1Br [Example 47]	B (0.01<B≤0.02)
CC(=O)NCc1cnc2c(c1)ncn2Cc1ccc2nc(N[C@@H]3CCCC[C@H]3O)sc2c1 [Example 99]	A (A≤0.01)
OCC1(CNc2nc3ccc(Cn4cnc5cccnc54)cc3s2)CCCCC1 [Example 76]	C (C>0.02)
O[C@@H]1Cc2ccccc2[C@H]1Nc1nc2ccc(Cn3cnc4cccnc43)cc2s1 [Example 46]	B (0.01<B≤0.02)
O[C@@H]1CCCC[C@H]1Nc1nc2ccc(Cn3cnc4cc(-c5cccnc5)cnc43)cc2s1 [Example 40]	B (0.01<B≤0.02)
CSc1cnc2c(c1)ncn2Cc1ccc2nc(N[C@@H]3CCCC[C@H]3O)sc2c1 [Example 85]	B (0.01<B≤0.02)
O[C@@H]1CCCC[C@H]1Nc1nc2ccc(Cn3cnc4cc(N5CCOCC5)cnc43)cc2s1 [Example 97]	B (0.01<B≤0.02)
CC(=O)c1cnc2c(c1)ncn2Cc1ccc2nc(N[C@@H]3CCCC[C@H]3O)sc2c1 [Example 73]	A (A≤0.01)
O[C@@H]1Cc2ccccc2[C@H]1Nc1nc2ccc(Cn3cnc4cc(Br)cnc43)cc2s1 [Example 42]	B (0.01<B≤0.02)
O[C@@H]1CCCC[C@H]1Nc1nc2ccc(Cn3cnc4cc(Cl)cnc43)cc2s1 [Example 55]	B (0.01<B≤0.02)
COc1cc2ncn(Cc3ccc4nc(N[C@@H](C)C5CCCCC5)sc4c3)c2cc1OC [Example 33]	C (C>0.02)
N#Cc1ccc2ncn(Cc3ccc4nc(N[C@@H]5CCCC[C@H]5O)sc4c3)c2n1 [Example 87]	B (0.01<B≤0.02)
O=C(O)c1cnc2c(c1)ncn2Cc1ccc2nc(N[C@@H]3CCCC[C@H]3O)sc2c1 [Example 81]	B (0.01<B≤0.02)
CS(=O)(=O)O.O[C@@H]1CCCC[C@H]1Nc1nc2ccc(Cn3cnc4cccnc43)cc2s1 [Example 3]	B (0.01<B≤0.02)
ON=C1CCCC[C@H]1Nc1nc2ccc(Cn3cnc4cccnc43)cc2s1 [Example 58]	B (0.01<B≤0.02)
O=C1CCCC[C@H]1Nc1nc2ccc(Cn3cnc4cccnc43)cc2s1 [Example 54]	A (A≤0.01)
